system: OVCAR-8 ovarian; experiment: NCI-60 one-dose screen, 48 h (100 = growth as untreated, 0 = no growth, -100 = all killed); settings: 10 µM unless noted
About 83,000 compounds went through this panel and 20% of them were active in at least one assay; those are over-represented in the sample as a whole.
Entry flag: True if growth reaches 90%; False if it does not.

INSERT INTO assay_data (molecule, group_label) VALUES
  ('COc1ccc(-c2nc3c(c(-c4ccc(Cl)cc4)nn3-c3ccccc3)c(-c3ccc(O)cc3)c2C#N)cc1', 'False'),
  ('C[N+](C)(C)CCCCCCCCCC[N+](C)(C)C', 'True'),
  ('C=C1C(=O)O[C@H]2[C@H]1CC/C(COC(=O)N[C@@H](Cc1c[nH]c3ccccc13)C(=O)OC)=C\CC[C@@]1(C)O[C@@H]21', 'False'),
  ('CNC1=C([N+](=O)[O-])C(c2ccccc2O)C(C#N)=C(c2cccs2)O1 (centres undefined)', 'True'),
  ('COc1cc2ncnc(Nc3ccc(S(=O)(=O)Nc4cc(C)on4)cc3)c2cc1OCCCN1CCN(c2ccc([N+](=O)[O-])cc2)CC1', 'True'),
  ('Clc1ccc(C2=NN[C@H](c3cn(-c4ccccc4)nc3-c3ccccc3)C2)cc1', 'False'),
  ('COc1ccc(-n2c(COc3ccc(F)cc3)n[nH]c2=S)cc1', 'True'),
  ('O=C(/C=C/c1ccccc1Br)c1cccc(OCCCCOc2cccc(C(=O)/C=C/c3ccccc3Br)c2)c1', 'True'),
  ('c1cn2cc(-c3ccc4ncn(C5CCCCC5)c4c3)nc(-c3ccc4c(c3)ncn4C3CCCCC3)c2n1', 'False');

---

System: U251 CNS
Test: NCI-60 one-dose screen, 48 h (100 = growth as untreated, 0 = no growth, -100 = all killed)
Conditions: 10 µM unless noted
Protocol: Growth inhibition of the U251 human tumor cell line is measured as a screen for anti-cancer activity. Cells are grown in 96 well plates and exposed to the test compound for 48 hours. Compounds are tested at a single concentration, which is 10^-5 M for most compounds. The reported endpoint is percent growth (GI% or GIPRCNT), where numbers from 0 - 100% represent growth inhibition, and numbers from -100% - 0 represent cell death. For example, a value of 40 represents 60% growth inhibition. […]
The panel holds about 83,000 compounds, 20% with a hit somewhere; the sample as a whole holds those more often.
Entry flag: rule met if growth reaches 90%; rule not met if it does not.

INSERT INTO assay_data (compound, group_label) VALUES
  ('Cc1c(C(N)=O)sc2ncn(CC(=O)NN=C3CCCCC3)c(=O)c12', 'rule met'),
  ('CS(=O)(=O)c1ccc(C(=O)Nc2ccc(Cl)c(-c3ccccn3)c2)c(Cl)c1', 'rule not met'),
  ('COc1cc2c(c(OC)c1O)C(=O)C(OC)C(c1ccc(O)c(O)c1)O2 (stereo not given)', 'rule not met'),
  ('O=C1/C(=C/N2N=C(c3ccc(Cl)cc3)CC2c2ccccc2O)SC(=S)N1c1cccc(C(F)(F)F)c1 (stereo not given)', 'rule not met');

---

tested on: DU-145 prostate; test: NCI-60 one-dose screen, 48 h; settings: 10 µM unless noted
This is part of a sample that, as a whole, favours compounds with a hit. Of some 83,000 tested, about 20% had one in any assay. The source made the active and inactive calls. How the source made its calls: active means growth percent below 10; inactive means the rest.
Outcomes: T = active, F = inactive

INSERT INTO measurements (molecule, group_label) VALUES
  ('O=C(/C=C/c1ccccc1)c1c[nH]c2ccccc2c1=O', 'T'),
  ('Cc1[nH]c2ccccc2c1C1=CC(=O)C=CC1=O', 'F'),
  ('CC(C)CC(=O)C(CCc1ccccn1)C(C)C (configuration not stated)', 'F'),
  ('COc1cnc2c(c1)C(=O)c1c-2n(CCCN2CCN(C)CC2)c(=O)c2cc(Cl)ccc12', 'F'),
  ('COc1cc(C2CC(=O)Nc3c2cnn3C)cc(OC)c1OC (configuration not stated)', 'F'),
  ('COC(=O)[C@H](Cc1cn(C)cn1)NC(=O)[C@H](CC(C)C)NC(=O)Nc1cc(C(F)(F)F)cc(C(F)(F)F)c1', 'T'),
  ('CCN(CC)c1ccc(/C=N/NC(=O)c2ccc(S(C)(=O)=O)cc2)c(O)c1', 'F'),
  ('Nc1c(C(=O)Nc2ccccc2)sc2nc3c(cc12)C(=O)CCC3', 'T'),
  ('CC(C)N(C(=S)SSC(=S)N(C(C)C)C(C)C)C(C)C', 'F'),
  ('COc1cc2c(=O)n(CCCN(C)C)c3c4cc[nH]c4ncc3c2cc1OC', 'F'),
  ('Cc1csc(N/N=C/c2ccncc2)n1', 'F'),
  ('CCC1N=C(N)N=C(N)N1c1ccc(Cl)cc1 (configuration not stated)', 'F'),
  ('CCCCCCCCCCCCNC(=O)N[C@H](C(=O)N[C@H]1/C=C/CCNC(=O)/C=C/[C@H](C)NC1=O)C(C)C', 'T'),
  ('COc1cc(-c2nn(C(=O)NCCN3CCN(C)CC3)cc2-c2ccncc2)ccc1Cl', 'F'),
  ('CCN1C(=O)/C(=C/N2N=C(c3ccc(Cl)cc3)CC2c2ccc(OC)cc2)SC1=S (configuration not stated)', 'F'),
  ('CN1C(=O)N(C)C2C1NN=c1s/c(=C\c3ccc(Br)cc3)c(=O)n12 (configuration not stated)', 'F'),
  ('COc1ccc(-c2cnc(-c3ccncc3-c3cccc(OC)c3)o2)cc1', 'T'),
  ('COc1cc2ccc(C(C)=O)cc2cc1OC', 'F'),
  ('CCCCOc1nc2ccc(C)cc2cc1/C=C/C(=O)/C=C(O)/C=C/c1cc2cc(C)ccc2nc1OCCCC', 'F'),
  ('CC(C)c1ccc2c(c1)CCC1C2CCCC1(C)NCc1ccccc1 (configuration not stated)', 'F'),
  ('O/N=C/c1ccncc1', 'F'),
  ('COc1cc(/C=N/NC(=O)Cn2c(-c3ccc(C)o3)nc3ccccc32)ccc1OCc1ccccc1', 'F');
